The reported measurements were obtained from the OligoGym collection.

- target.system: KRAS
- experimental.setup: ASO, A431, 0.185 µM
After the bases stand the sugars from the 5' end (letter, count) and the backbone: PS all phosphorothioate, else s phosphorothioate and o phosphodiester by linkage. Methylation of C is not given here. e = 2'-O-(2-methoxyethyl) (MOE); k = constrained ethyl (cEt); d = 2'-deoxy (DNA)
Think of 20% as a floor: if target mRNA inhibition stands on it or above, it is MET; beneath it, NOT MET.

Answered examples (10):
biopolymer.sequence | class.label
TTGATTTGTCAGCAGG (sugars kkddddddddddkeke, PS) | MET
CAGTGTGACTCAGTTA (sugars kkkddddddddkdkdk, PS) | NOT MET
GTGTTTATGCAATGTT (sugars kkkdddddddddkeke, PS) | MET
TGGTGTAACATAGGTT (sugars k3 d9 k3 e1, PS) | MET
TGTTTATGCAATGTTA (sugars k3 d9 k3 e1, PS) | MET
TCCATTTATGTGACTA (sugars k3 d10 k3, PS) | MET
TGATTTGTCAGCAGGA (sugars kkddddddddddkeke, PS) | MET
ATGGTGTAACATAGGT (sugars k3 d10 k3, PS) | NOT MET
TGGTGTAACATAGGTT (sugars kkddddddddddkeke, PS) | MET
GATTGTGCTGAGCTTG (sugars kkdddddddddkdkdk, PS) | NOT MET

Quick check: does GTGTTTATGCAATGTT (sugars k3 d9 k3 e1, PS) have target mRNA inhibition greater than or equal to 20%?
NOT MET
